System: PSMA-expressing LNCaP tumor xenografts
Assay: Ex vivo biodistribution in LNCaP tumor-bearing mice
Conditions: LNCaP tumor-bearing mice, 1 h post injection, mean ± SD, n = 4
Below, each of the molecules is paired with its reported Small Intestine uptake value.
Express it in %ID/g; write the number only.

Study these solved cases before continuing.
{"columns": ["MOLECULE", "Small Intestine uptake [%ID/g]"],
 "data": [
  ["N#C[C@@H]1CC(F)(F)CN1C(=O)CNC(=O)c1ccnc2ccc(OCCCN3CCN(C(=O)CN4CCN(CC(=O)[O-])CCN(CC(=O)[O-])CCN(CC(=O)[O-])CC4)CC3)cc12.[68Ga+3] [[^68Ga]Ga-FAPI-04, reference compound]", 0.74],
  ["N#C[C@@H]1CC(F)(F)CN1C(=O)CNC(=O)c1ccnc2ccc(-c3cn(CC(=O)N[C@@H](CCCCNC(=O)CN4CCN(CC(=O)[O-])CCN(CC(=O)[O-])CCN(CC(=O)[O-])CC4)C(=O)NCC(=O)NC[C@H]4CC[C@H](C(=O)N[C@@H](Cc5c6ccccc6cc6ccccc56)C(=O)NCCCC[C@H](NC(=O)N[C@@H](CCC(=O)O)C(=O)O)C(=O)O)CC4)nn3)cc12.[68Ga+3] [[^68Ga]Ga-AV01030]", 1.58],
  ["N#C[C@@H]1CC(F)(F)CN1C(=O)CNC(=O)c1ccnc2ccc(OCc3cn(CC(=O)N[C@@H](CCCCNC(=O)CN4CCN(CC(=O)[O-])CCN(CC(=O)[O-])CCN(CC(=O)[O-])CC4)C(=O)NCC(=O)NC[C@H]4CC[C@H](C(=O)N[C@@H](Cc5c6ccccc6cc6ccccc56)C(=O)NCCCC[C@H](NC(=O)N[C@@H](CCC(=O)O)C(=O)O)C(=O)O)CC4)nn3)cc12.[68Ga+3] [[^68Ga]Ga-AV01038]", 2.12]
]}

*Q* Retrieve Small Intestine uptake measured for N#C[C@@H]1CC(F)(F)CN1C(=O)CNC(=O)c1ccnc2ccc(OCCCc3cn(CC(=O)N[C@@H](CCCCNC(=O)CN4CCN(CC(=O)[O-])CCN(CC(=O)[O-])CCN(CC(=O)[O-])CC4)C(=O)NCC(=O)NC[C@H]4CC[C@H](C(=O)N[C@@H](Cc5c6ccccc6cc6ccccc56)C(=O)NCCCC[C@H](NC(=O)N[C@@H](CCC(=O)O)C(=O)O)C(=O)O)CC4)nn3)cc12.[68Ga+3] [[^68Ga]Ga-AV01017] and print it.
*A* 2.47

* * *

Tested on: PSMA-expressing LNCaP tumor xenografts
Test: Ex vivo biodistribution in LNCaP tumor-bearing mice
Settings: LNCaP tumor-bearing mice, 1 h post injection, mean ± SD, n = 4
QUANTITY: Brain uptake (%ID/g)
Express it in %ID/g; write the number only.

Study these solved cases before continuing.
{"columns": ["COMPOUND", "UNIT", "Brain uptake"],
 "data": [
  ["N#C[C@@H]1CC(F)(F)CN1C(=O)CNC(=O)c1ccnc2ccc(-c3cn(CC(=O)N[C@@H](CCCCNC(=O)CN4CCN(CC(=O)[O-])CCN(CC(=O)[O-])CCN(CC(=O)[O-])CC4)C(=O)NCC(=O)NC[C@H]4CC[C@H](C(=O)N[C@@H](Cc5c6ccccc6cc6ccccc56)C(=O)NCCCC[C@H](NC(=O)N[C@@H](CCC(=O)O)C(=O)O)C(=O)O)CC4)nn3)cc12.[68Ga+3] [[^68Ga]Ga-AV01030]", "%ID/g", 0.12],
  ["N#C[C@@H]1CC(F)(F)CN1C(=O)CNC(=O)c1ccnc2ccc(OCCCN3CCN(C(=O)CN4CCN(CC(=O)[O-])CCN(CC(=O)[O-])CCN(CC(=O)[O-])CC4)CC3)cc12.[68Ga+3] [[^68Ga]Ga-FAPI-04, reference compound]", "%ID/g", 0.06],
  ["N#C[C@@H]1CC(F)(F)CN1C(=O)CNC(=O)c1ccnc2ccc(OCCCc3cn(CC(=O)N[C@@H](CCCCNC(=O)CN4CCN(CC(=O)[O-])CCN(CC(=O)[O-])CCN(CC(=O)[O-])CC4)C(=O)NCC(=O)NC[C@H]4CC[C@H](C(=O)N[C@@H](Cc5c6ccccc6cc6ccccc56)C(=O)NCCCC[C@H](NC(=O)N[C@@H](CCC(=O)O)C(=O)O)C(=O)O)CC4)nn3)cc12.[68Ga+3] [[^68Ga]Ga-AV01017]", "%ID/g", 0.18]
]}

Now for a further compound.
*Q* Retrieve Brain uptake measured for N#C[C@@H]1CC(F)(F)CN1C(=O)CNC(=O)c1ccnc2ccc(OCc3cn(CC(=O)N[C@@H](CCCCNC(=O)CN4CCN(CC(=O)[O-])CCN(CC(=O)[O-])CCN(CC(=O)[O-])CC4)C(=O)NCC(=O)NC[C@H]4CC[C@H](C(=O)N[C@@H](Cc5c6ccccc6cc6ccccc56)C(=O)NCCCC[C@H](NC(=O)N[C@@H](CCC(=O)O)C(=O)O)C(=O)O)CC4)nn3)cc12.[68Ga+3] [[^68Ga]Ga-AV01038] and print it.
*A* 0.15

* * *

Below, each of the compounds is paired with its reported Tumor/bone uptake ratio value.
Tested on: PSMA-expressing LNCaP tumor xenografts
Assay: Ex vivo biodistribution in LNCaP tumor-bearing mice
Settings: LNCaP tumor-bearing mice, 1 h post injection, mean ± SD, n = 4
Please give the numeric answer without any surrounding text.

Study these solved cases before continuing.
{"columns": ["COMPOUND", "OBSERVED"],
 "data": [
  ["N#C[C@@H]1CC(F)(F)CN1C(=O)CNC(=O)c1ccnc2ccc(OCCCN3CCN(C(=O)CN4CCN(CC(=O)[O-])CCN(CC(=O)[O-])CCN(CC(=O)[O-])CC4)CC3)cc12.[68Ga+3] [[^68Ga]Ga-FAPI-04, reference compound]", 0.51],
  ["N#C[C@@H]1CC(F)(F)CN1C(=O)CNC(=O)c1ccnc2ccc(OCc3cn(CC(=O)N[C@@H](CCCCNC(=O)CN4CCN(CC(=O)[O-])CCN(CC(=O)[O-])CCN(CC(=O)[O-])CC4)C(=O)NCC(=O)NC[C@H]4CC[C@H](C(=O)N[C@@H](Cc5c6ccccc6cc6ccccc56)C(=O)NCCCC[C@H](NC(=O)N[C@@H](CCC(=O)O)C(=O)O)C(=O)O)CC4)nn3)cc12.[68Ga+3] [[^68Ga]Ga-AV01038]", 0.97]
]}

*Q* Retrieve Tumor/bone uptake ratio measured for N#C[C@@H]1CC(F)(F)CN1C(=O)CNC(=O)c1ccnc2ccc(OCCCc3cn(CC(=O)N[C@@H](CCCCNC(=O)CN4CCN(CC(=O)[O-])CCN(CC(=O)[O-])CCN(CC(=O)[O-])CC4)C(=O)NCC(=O)NC[C@H]4CC[C@H](C(=O)N[C@@H](Cc5c6ccccc6cc6ccccc56)C(=O)NCCCC[C@H](NC(=O)N[C@@H](CCC(=O)O)C(=O)O)C(=O)O)CC4)nn3)cc12.[68Ga+3] [[^68Ga]Ga-AV01017] and print it.
*A* 1.10

* * *

Below, each of the compounds is paired with its reported Blood uptake value.
Test system: PSMA-expressing LNCaP tumor xenografts
Assay: Ex vivo biodistribution in LNCaP tumor-bearing mice
Settings: LNCaP tumor-bearing mice, 1 h post injection, mean ± SD, n = 4
Description: Biodistribution studies were conducted at 1 h post injection with ^68Ga-labeled AV01017, AV01030, AV01038, HTK03041, and FAPI-04 in LNCaP tumor-bearing mice (Figure 5 and Table S4, Supplementary Materials). […] For biodistribution studies, the mice were injected with the radiotracer (~2–4 MBq) as described above. […] Blood was withdrawn by cardiac puncture, and organs/tissues of interest were collected, weighed, and counted using a Perkin Elmer (Waltham, MA, USA) Wizard2 2480 automatic gamma counter.
Express it in %ID/g; write the number only.

Study these solved cases before continuing.
{"columns": ["COMPOUND", "TEST SYSTEM", "OBSERVED"],
 "data": [
  ["N#C[C@@H]1CC(F)(F)CN1C(=O)CNC(=O)c1ccnc2ccc(OCCCN3CCN(C(=O)CN4CCN(CC(=O)[O-])CCN(CC(=O)[O-])CCN(CC(=O)[O-])CC4)CC3)cc12.[68Ga+3] [[^68Ga]Ga-FAPI-04, reference compound]", "PSMA-expressing LNCaP tumor xenografts", 2.16],
  ["N#C[C@@H]1CC(F)(F)CN1C(=O)CNC(=O)c1ccnc2ccc(OCCCc3cn(CC(=O)N[C@@H](CCCCNC(=O)CN4CCN(CC(=O)[O-])CCN(CC(=O)[O-])CCN(CC(=O)[O-])CC4)C(=O)NCC(=O)NC[C@H]4CC[C@H](C(=O)N[C@@H](Cc5c6ccccc6cc6ccccc56)C(=O)NCCCC[C@H](NC(=O)N[C@@H](CCC(=O)O)C(=O)O)C(=O)O)CC4)nn3)cc12.[68Ga+3] [[^68Ga]Ga-AV01017]", "PSMA-expressing LNCaP tumor xenografts", 9.24],
  ["N#C[C@@H]1CC(F)(F)CN1C(=O)CNC(=O)c1ccnc2ccc(-c3cn(CC(=O)N[C@@H](CCCCNC(=O)CN4CCN(CC(=O)[O-])CCN(CC(=O)[O-])CCN(CC(=O)[O-])CC4)C(=O)NCC(=O)NC[C@H]4CC[C@H](C(=O)N[C@@H](Cc5c6ccccc6cc6ccccc56)C(=O)NCCCC[C@H](NC(=O)N[C@@H](CCC(=O)O)C(=O)O)C(=O)O)CC4)nn3)cc12.[68Ga+3] [[^68Ga]Ga-AV01030]", "PSMA-expressing LNCaP tumor xenografts", 5.75]
]}

*Q* Retrieve Blood uptake measured for N#C[C@@H]1CC(F)(F)CN1C(=O)CNC(=O)c1ccnc2ccc(OCc3cn(CC(=O)N[C@@H](CCCCNC(=O)CN4CCN(CC(=O)[O-])CCN(CC(=O)[O-])CCN(CC(=O)[O-])CC4)C(=O)NCC(=O)NC[C@H]4CC[C@H](C(=O)N[C@@H](Cc5c6ccccc6cc6ccccc56)C(=O)NCCCC[C@H](NC(=O)N[C@@H](CCC(=O)O)C(=O)O)C(=O)O)CC4)nn3)cc12.[68Ga+3] [[^68Ga]Ga-AV01038] and print it.
*A* 7.07
